- System: HepaRG
- protocol_text: LDH release cytotoxicity, % of total lysis control; higher = more cytotoxic
- condition_notes: 3.16228 µM; 48 h
For each of the molecules below, state its LDH release cytotoxicity.
The response must be a number in % with no trailing unit.

Can you share its LDH release cytotoxicity? I mean this molecule: CCCCCC(=O)O [Hexanoic acid]
-1.32

Can you share its LDH release cytotoxicity? I mean this molecule: CC1=C(C)S(=O)(=O)CCS1(=O)=O [Dimethipin]
-2.6

Can you share its LDH release cytotoxicity? I mean this molecule: CC=Cc1ccc(O)c(OC)c1 [Isoeugenol]
-2.35

Can you share its LDH release cytotoxicity? I mean this molecule: CC(C)(O)c1ccc(CNC(=O)c2cccnc2Oc2ccc(F)cc2)cc1
-0.936

Can you share its LDH release cytotoxicity? I mean this molecule: CCCCCCCc1ccc(O)cc1 [4-Heptylphenol]
-1.8

Can you share its LDH release cytotoxicity? I mean this molecule: CC#CC1(O)CCC2C3CCC4=CC(=O)CCC4=C3C(c3ccc(N(C)C)cc3)CC21C (stereo not given) [Mifepristone]
17.4

Can you share its LDH release cytotoxicity? I mean this molecule: CN(C)C(=S)SSC(=S)N(C)C [Thiram]
-2.28

Can you share its LDH release cytotoxicity? I mean this molecule: c1ccc2c(c1)-c1cccc3c1c-2cc1ccccc13 [Benzo(b)fluoranthene]
-1.02

Can you share its LDH release cytotoxicity? I mean this molecule: CC1=CC(=O)CC(C)(C)C1 [Isophorone]
0.145

Can you share its LDH release cytotoxicity? I mean this molecule: O=C(CCCN1CCC(O)(c2ccc(Cl)cc2)CC1)c1ccc(F)cc1 [Haloperidol]
-2.03

====

For each of the compounds below, state its LDH release cytotoxicity.
- Test system: HepaRG
- protocol_text: LDH release cytotoxicity, % of total lysis control; higher = more cytotoxic
- condition_notes: 31.6228 µM; 48 h
Where a name gives a salt, the structure may show the parent alone.
The response must be a number in % with no trailing unit.

Can you share its LDH release cytotoxicity? I mean this compound: CN(C)CCOC(c1ccccc1)c1ccccc1 [Diphenhydramine hydrochloride]
-0.772

Can you share its LDH release cytotoxicity? I mean this compound: CCCOC(=O)c1ccc(O)cc1
-0.541

Can you share its LDH release cytotoxicity? I mean this compound: CCC(=O)Nc1ccc(Cl)c(Cl)c1
0.666

Can you share its LDH release cytotoxicity? I mean this compound: COc1ccc(OC(F)(F)F)cc1CNC1CCCNC1c1ccccc1 (configuration not stated)
5.16

Can you share its LDH release cytotoxicity? I mean this compound: OC[C@@H](O)[C@@H](O)[C@H](O)[C@H](O)CO
0.669

Can you share its LDH release cytotoxicity? I mean this compound: Cc1cc(C)nc(Nc2ccccc2)n1
0.157

Can you share its LDH release cytotoxicity? I mean this compound: CC(C)C1(C)N=C(c2ncccc2C(=O)O)NC1=O (configuration not stated)
-0.823

Can you share its LDH release cytotoxicity? I mean this compound: CN1CSC(=S)N(C)C1
13.1

Can you share its LDH release cytotoxicity? I mean this compound: CSC(=O)c1cccc2nnsc12
0.737

Can you share its LDH release cytotoxicity? I mean this compound: O=c1[nH]c2ccc(S(=O)CCN3CCC(Cc4ccc(F)cc4)CC3)cc2o1 (configuration not stated)
-1.7

Can you share its LDH release cytotoxicity? I mean this compound: CC1(C)C(C=C(Cl)Cl)C1C(=O)OC(C#N)c1cccc(Oc2ccccc2)c1 (configuration not stated)
-0.803

Can you share its LDH release cytotoxicity? I mean this compound: Nc1nc(N)c2nc(CNc3ccc(C(=O)NC(CCC(=O)O)C(=O)O)cc3)cnc2n1 (configuration not stated)
-9.84

====

For each of the compounds below, state its LDH release cytotoxicity.
- Tested on: HepaRG
- protocol_text: LDH release cytotoxicity, % of total lysis control; higher = more cytotoxic
- condition_notes: 3.16228 µM; 48 h
Where a name gives a salt, the structure may show the parent alone.
The response must be a number in % with no trailing unit.

Can you share its LDH release cytotoxicity? I mean this compound: O=P(OCCCl)(OCCCl)OCCCl [Tris(2-chloroethyl) phosphate]
-0.623

Can you share its LDH release cytotoxicity? I mean this compound: CCN(CC)c1nc(C)cc(OP(=S)(OC)OC)n1
-1.49

Can you share its LDH release cytotoxicity? I mean this compound: CN(C)c1ccc(N=NS(=O)(=O)O)cc1
-2.64

Can you share its LDH release cytotoxicity? I mean this compound: O=C(O)c1ccc([N+](=O)[O-])cc1
-1.62

Can you share its LDH release cytotoxicity? I mean this compound: CC1(C)NC(=O)N(c2ccc([N+](=O)[O-])c(C(F)(F)F)c2)C1=O
-2

Can you share its LDH release cytotoxicity? I mean this compound: CCC(C)c1cc([N+](=O)[O-])cc([N+](=O)[O-])c1O (stereo not given)
-0.982

Can you share its LDH release cytotoxicity? I mean this compound: Clc1ccccc1-c1nnc(-c2ccccc2Cl)nn1
-0.967

Can you share its LDH release cytotoxicity? I mean this compound: CN(C)C1C(=O)C(C(N)=O)C(=O)C2(O)C(=O)C3C(=O)c4c(O)cccc4C(C)(O)C3C(O)C12 (stereo not given) [Oxytetracycline hydrochloride]
-1.93

Can you share its LDH release cytotoxicity? I mean this compound: c1ccc(N=Nc2ccccc2)cc1
-1.63

Can you share its LDH release cytotoxicity? I mean this compound: OC12N=C(c3ccccc3)SC1Cc1cc(Cl)ccc12 (stereo not given)
3.44

Can you share its LDH release cytotoxicity? I mean this compound: COc1c(Cl)ccc(Cl)c1C(=O)O
-0.996

Can you share its LDH release cytotoxicity? I mean this compound: O=C(O)c1cccc(CC2COc3ccc(OCc4nc5cc(F)ccc5s4)cc3C2O)c1 (stereo not given)
-0.67

Can you share its LDH release cytotoxicity? I mean this compound: OC[C@@H](O)[C@@H](O)[C@H](O)[C@H](O)CO
-2.39

Can you share its LDH release cytotoxicity? I mean this compound: N#Cc1ccc(N(CC(N)=O)CC(F)(F)F)cc1C(F)(F)F
-0.891

Can you share its LDH release cytotoxicity? I mean this compound: Cc1ccc(N=CN(C)C=Nc2ccc(C)cc2C)c(C)c1
-2.06

====

- Test system: HepaRG
- protocol_text: LDH release cytotoxicity, % of total lysis control; higher = more cytotoxic
- condition_notes: 100 µM; 48 h
For each of the compounds below, state its LDH release cytotoxicity.
The response must be a number in % with no trailing unit.

Can you share its LDH release cytotoxicity? I mean this compound: CC(=O)SC1CC2=CC(=O)CCC2(C)C2CCC3(C)C(CCC34CCC(=O)O4)C12 (stereo not given) [Spironolactone]
13.5

Can you share its LDH release cytotoxicity? I mean this compound: CN(C)C(=O)Cl [Dimethylcarbamoyl chloride]
0.647

Can you share its LDH release cytotoxicity? I mean this compound: CC12CCC(=O)C=C1CCC1C2C(O)CC2(C)C(C(=O)CO)CCC12 (stereo not given) [Corticosterone]
1.02

Can you share its LDH release cytotoxicity? I mean this compound: CCCN(CCC)c1c([N+](=O)[O-])cc(C(F)(F)F)c(N)c1[N+](=O)[O-] [Prodiamine]
8.35

Can you share its LDH release cytotoxicity? I mean this compound: C=C(C)C1Cc2c(ccc3c2OC2COc4cc(OC)c(OC)cc4C2C3=O)O1 (stereo not given) [Rotenone]
72.3

Can you share its LDH release cytotoxicity? I mean this compound: CC(C)(C)c1ccc(O)c(C(C)(C)C)c1 [2,4-Di-tert-butylphenol]
0.8

Can you share its LDH release cytotoxicity? I mean this compound: CCOCCO [2-Ethoxyethanol]
1.46

Can you share its LDH release cytotoxicity? I mean this compound: Cc1ccc(N(C)C)cc1 [N,N,4-Trimethylaniline]
1.9

Can you share its LDH release cytotoxicity? I mean this compound: CCCCCCCCC=CCCCCCCCC(=O)OCC(O)C1OCC(O)C1O (stereo not given) [Sorbitan, mono-(9Z)-9-octadecenoate]
-0.317

Can you share its LDH release cytotoxicity? I mean this compound: CCCOC(=O)c1ccc(O)cc1 [Propylparaben]
0.018

Can you share its LDH release cytotoxicity? I mean this compound: OCC(CO)(CBr)CBr [Pentaerythritol dibromide]
0.8

Can you share its LDH release cytotoxicity? I mean this compound: CCCCOC(=O)c1ccc(O)cc1 [Butylparaben]
-0.69

Can you share its LDH release cytotoxicity? I mean this compound: C=CCc1ccc(O)c(OC)c1 [Eugenol]
-0.336

Can you share its LDH release cytotoxicity? I mean this compound: Cc1ccccc1O [o-Cresol]
13

Can you share its LDH release cytotoxicity? I mean this compound: CC1(C)CON(Cc2ccccc2Cl)C1=O [Clomazone]
-4.53

Can you share its LDH release cytotoxicity? I mean this compound: CCN(CC)N=O [N-Nitrosodiethylamine]
0.842

Can you share its LDH release cytotoxicity? I mean this compound: Cc1ccc(S(=O)(=O)NC(=O)NN2CCCCCC2)cc1 [Tolazamide]
1.58

Can you share its LDH release cytotoxicity? I mean this compound: c1ccc2[nH]c(-c3cscn3)nc2c1 [Thiabendazole]
5.7

Can you share its LDH release cytotoxicity? I mean this compound: CCCC(=O)OCC [Ethyl butyrate]
0.69

Can you share its LDH release cytotoxicity? I mean this compound: CC(C)c1cccc(C(C)C)c1N1C(=O)c2ccc(O)cc2C1=O [2-(2,6-Diisopropylphenyl)-5-hydroxy-1H-isoindole-1,3-dione]
0.492

Can you share its LDH release cytotoxicity? I mean this compound: CCNc1ccccc1 [N-Ethylaniline]
0.942

Can you share its LDH release cytotoxicity? I mean this compound: CC(O)CC(C)(C)O (stereo not given) [2-Methyl-2,4-pentanediol]
-0.649

Can you share its LDH release cytotoxicity? I mean this compound: CON=C(C(=O)OC)c1ccccc1CON=C(C)c1cccc(C(F)(F)F)c1 [Trifloxystrobin]
1.57

Can you share its LDH release cytotoxicity? I mean this compound: CCOC(=O)CC(SP(=O)(OC)OC)C(=O)OCC (stereo not given) [Malaoxon]
-0.859

Can you share its LDH release cytotoxicity? I mean this compound: COP(=S)(OC)Oc1ccc(SC)c(C)c1 [Fenthion]
2.37

These entries and their values trace back to the supplement of paper PMC7840683.
